# remaining activity at 10 µM per entry
biological target: VEGFR2 (Homo sapiens); experiment: Kinase activity test (ReactionBiology), % enzyme activity relative to DMSO; format: biochemical; design: purchased ReactionBiology; settings: VEGFR2; 10 uM; replicate Data 1; read-out: % Enzyme Activity (relative to DMSO controls), Data 1;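 further: VEGFR2 was one member of a ten-kinase screening panel testing marketed FDA-approved drugs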
Sequence (P35968 20-1356): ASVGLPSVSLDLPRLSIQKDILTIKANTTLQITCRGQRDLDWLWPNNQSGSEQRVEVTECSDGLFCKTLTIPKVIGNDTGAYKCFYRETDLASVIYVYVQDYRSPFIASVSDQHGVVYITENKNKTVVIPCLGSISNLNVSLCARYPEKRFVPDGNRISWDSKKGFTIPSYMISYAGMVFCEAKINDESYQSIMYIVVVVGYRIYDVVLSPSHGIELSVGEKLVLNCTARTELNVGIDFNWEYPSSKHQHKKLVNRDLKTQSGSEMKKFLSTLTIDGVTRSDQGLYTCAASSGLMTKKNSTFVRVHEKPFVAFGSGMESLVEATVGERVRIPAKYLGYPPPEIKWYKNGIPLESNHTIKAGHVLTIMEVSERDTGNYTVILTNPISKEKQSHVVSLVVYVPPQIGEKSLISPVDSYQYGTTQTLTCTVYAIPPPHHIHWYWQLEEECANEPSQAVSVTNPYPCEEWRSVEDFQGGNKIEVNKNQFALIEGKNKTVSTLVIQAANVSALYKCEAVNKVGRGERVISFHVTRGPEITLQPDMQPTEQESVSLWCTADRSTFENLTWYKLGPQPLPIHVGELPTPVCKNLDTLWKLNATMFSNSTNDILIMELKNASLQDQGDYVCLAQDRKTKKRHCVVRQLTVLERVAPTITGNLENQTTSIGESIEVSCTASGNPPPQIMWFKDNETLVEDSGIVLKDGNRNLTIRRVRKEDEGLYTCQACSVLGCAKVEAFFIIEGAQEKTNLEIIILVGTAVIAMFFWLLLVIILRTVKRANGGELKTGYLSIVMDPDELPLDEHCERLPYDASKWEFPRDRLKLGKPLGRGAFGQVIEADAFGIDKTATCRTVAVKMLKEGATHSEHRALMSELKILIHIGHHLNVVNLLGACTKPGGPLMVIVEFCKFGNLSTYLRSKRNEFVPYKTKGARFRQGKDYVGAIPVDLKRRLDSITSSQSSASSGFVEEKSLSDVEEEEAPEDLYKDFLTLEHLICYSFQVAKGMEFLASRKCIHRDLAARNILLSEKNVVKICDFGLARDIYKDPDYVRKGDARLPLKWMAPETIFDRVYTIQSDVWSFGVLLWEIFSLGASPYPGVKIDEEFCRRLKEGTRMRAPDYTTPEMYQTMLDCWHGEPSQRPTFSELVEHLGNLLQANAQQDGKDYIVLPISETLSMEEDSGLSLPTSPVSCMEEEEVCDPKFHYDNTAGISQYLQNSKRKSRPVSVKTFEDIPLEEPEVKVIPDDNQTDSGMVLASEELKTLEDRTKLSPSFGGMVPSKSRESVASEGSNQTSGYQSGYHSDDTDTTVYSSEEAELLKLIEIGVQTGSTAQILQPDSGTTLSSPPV
Output spec: scalar in %, unitless text.

Solved cases below.
compound="CS(=O)(=O)c1ccc(C(=O)Nc2ccc(Cl)c(-c3ccccn3)c2)c(Cl)c1 [Vismodegib]" recorded_value=97.8
compound="Oc1cc(Cl)ccc1Oc1ccc(Cl)cc1Cl [Triclosan, reference compound]" recorded_value=103
compound="NC(=O)c1cccnc1 [Niacinamide, reference compound]" recorded_value=90.6

Q: Report value only: remaining activity at 10 µM, VEGFR2 (Homo sapiens), O=C(O)c1ccccc1O [Salicylic acid]
Result: 103

Q: Report value only: remaining activity at 10 µM, VEGFR2 (Homo sapiens), N[C@@H](CC(=O)N1CCn2c(nnc2C(F)(F)F)C1)Cc1cc(F)c(F)cc1F [Sitagliptin]
Result: 99.4
